- TEST DETAILS: Solubility of solid forms in water (visual dissolution)
- RUN PARAMETERS: deionized water added drop-wise with agitation until visual dissolution of the solid; hydrochloride
Structures can show the parent of a compound that is named as a salt.
QUANTITY MEASURED: Solubility (mg/mL)
# output: bare number, implied unit mg/mL

// known answers, use as guide
molecule="C[C@@H]1CCN(C(=O)CC#N)C[C@@H]1N(C)c1ncnc2[nH]ccc12 [Tofacitinib hydrochloride (APO-B), tofacitinib hydrochloride]" obs_value=2294
molecule="C[C@@H]1CCN(C(=O)CC#N)C[C@@H]1N(C)c1ncnc2[nH]ccc12 [Tofacitinib hydrochloride (APO-G), tofacitinib hydrochloride]" obs_value=2000

Exam item: I would be grateful if you could share the reported Solubility for C[C@@H]1CCN(C(=O)CC#N)C[C@@H]1N(C)c1ncnc2[nH]ccc12 [Tofacitinib hydrochloride (APO-C), tofacitinib hydrochloride] .
Marked response: 2235

Exam item: I would be grateful if you could share the reported Solubility for C[C@@H]1CCN(C(=O)CC#N)C[C@@H]1N(C)c1ncnc2[nH]ccc12 [Tofacitinib hydrochloride (APO-E), tofacitinib hydrochloride] .
Marked response: 2235

Exam item: I would be grateful if you could share the reported Solubility for C[C@@H]1CCN(C(=O)CC#N)C[C@@H]1N(C)c1ncnc2[nH]ccc12 [Tofacitinib hydrochloride (APO-D), tofacitinib hydrochloride] .
Marked response: 2145

====

- TEST DETAILS: physchem
- RUN PARAMETERS: deionized water, thermodynamic from solid
Counter-ions that a name gives are not always drawn.
QUANTITY MEASURED: Solubility (mg/mL)
# output: bare number, implied unit mg/mL

Exam item: I would be grateful if you could share the reported Solubility for C[C@@H]1CCN(C(=O)CC#N)C[C@@H]1N(C)c1ncnc2[nH]ccc12 [Tofacitinib hydrochloride (APO-A), tofacitinib hydrochloride] .
Marked response: 2500

====

- TEST DETAILS: physchem
- RUN PARAMETERS: water, thermodynamic from solid
QUANTITY MEASURED: Solubility

Exam item: I would be grateful if you could share the reported Solubility for C[C@@H]1CCN(C(=O)CC#N)C[C@@H]1N(C)c1ncnc2[nH]ccc12.O=C(O)CC(O)(CC(=O)O)C(=O)O [Tofacitinib citrate, reference compound] .
Marked response: ~2000 µg/mL
